Data origin: paper PMC6842059

assay: in vitro; details: human
CC50 values by entry

*Q* Please look at this compound and report its CC50: CC(C)CN(C[C@@H](O)[C@H](Cc1ccccc1)NC(=O)O[C@H]1CO[C@H]2OCC[C@H]21)S(=O)(=O)c1ccc(B(O)O)cc1 [Inhibitor 5]
*A* > 100 µM

Next:
*Q* Please look at this compound and report its CC50: CC(C)CN(C[C@@H](O)[C@H](Cc1ccccc1)NC(=O)O[C@H]1C2CO[C@H]3OC[C@@H]1C3C2)S(=O)(=O)c1ccc(B(O)O)cc1 (some centres unmarked) [Inhibitor 6]
*A* > 100 µM
